# ASSAYED SYSTEM: human FGFR2b (Homo sapiens, UniProt P21802)
# Sequence (P21802 22-822 isoform P21802-3 limits assumed): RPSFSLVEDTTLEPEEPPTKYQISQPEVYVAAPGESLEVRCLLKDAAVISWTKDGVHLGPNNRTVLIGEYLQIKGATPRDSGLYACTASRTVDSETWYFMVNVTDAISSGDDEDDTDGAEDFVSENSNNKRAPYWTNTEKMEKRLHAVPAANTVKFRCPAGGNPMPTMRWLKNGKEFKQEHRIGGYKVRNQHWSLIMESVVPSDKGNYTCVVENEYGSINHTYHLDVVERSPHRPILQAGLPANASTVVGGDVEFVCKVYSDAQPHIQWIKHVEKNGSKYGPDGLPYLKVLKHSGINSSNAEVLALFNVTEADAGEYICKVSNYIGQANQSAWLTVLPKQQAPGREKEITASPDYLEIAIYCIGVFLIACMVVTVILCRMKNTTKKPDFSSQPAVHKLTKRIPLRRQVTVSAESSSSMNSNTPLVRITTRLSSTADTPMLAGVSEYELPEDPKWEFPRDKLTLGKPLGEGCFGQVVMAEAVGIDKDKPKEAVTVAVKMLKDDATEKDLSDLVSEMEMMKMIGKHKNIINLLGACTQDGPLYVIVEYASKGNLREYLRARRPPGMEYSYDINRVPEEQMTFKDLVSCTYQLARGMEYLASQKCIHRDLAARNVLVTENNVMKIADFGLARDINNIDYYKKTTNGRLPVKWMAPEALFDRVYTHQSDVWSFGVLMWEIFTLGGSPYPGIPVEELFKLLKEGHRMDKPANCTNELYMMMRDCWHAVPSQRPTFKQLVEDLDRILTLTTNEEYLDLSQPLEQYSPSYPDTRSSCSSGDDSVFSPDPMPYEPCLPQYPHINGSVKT
# METHOD DESCRIPTION: SPR affinity determination, human FGFR2b (Example 9)
# Assay type: binding
# Protocol: For affinity determination, antibodies were captured by anti-human Fc antibodies, and used in the affinity assay based on surface plasmon resonance (SPR) technology. SPR signals were analyzed to calculate the association rates (ka) and dissociation rates (kd) by using the one-to-one Langmuir binding model (BIA Evaluation Software, GE Life Sciences). The equilibrium dissociation constant (KD) was calculated as the ratio of kd/ka. […]
Listing of entries alongside the reported kd.
Give the value; after it, write the unit.

BGAh9179: humanized anti-FGFR2b IgG1 antibody from murine BGAm1371; VH SEQ ID NO: 21, VL SEQ ID NO: 22 (antibody, V domains shown, Synthetic: VH AA; Synthetic: VL AA) VH: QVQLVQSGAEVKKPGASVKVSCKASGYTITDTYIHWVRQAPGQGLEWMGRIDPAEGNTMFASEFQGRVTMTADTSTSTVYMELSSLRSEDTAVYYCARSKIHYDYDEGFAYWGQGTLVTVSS VL: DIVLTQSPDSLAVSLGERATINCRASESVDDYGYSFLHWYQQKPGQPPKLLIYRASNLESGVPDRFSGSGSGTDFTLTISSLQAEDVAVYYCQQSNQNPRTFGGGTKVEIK    1.78E−03 S^−1
BGAm1371: parental murine anti-FGFR2b antibody (parental mouse clone); VH SEQ ID NO: 32, VL SEQ ID NO: 34 (antibody, V domains shown, Synthetic: VH AA; Synthetic: VL AA) VH: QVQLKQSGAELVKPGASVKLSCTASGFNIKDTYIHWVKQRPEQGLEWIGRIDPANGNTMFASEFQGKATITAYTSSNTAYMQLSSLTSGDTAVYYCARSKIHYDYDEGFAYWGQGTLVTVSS VL: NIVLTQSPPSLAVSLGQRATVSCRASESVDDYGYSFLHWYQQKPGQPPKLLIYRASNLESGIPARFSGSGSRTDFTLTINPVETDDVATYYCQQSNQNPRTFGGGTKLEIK    1.19E−03 S^−1

Please find the next molecule below.
*Q* Requested field: kd. Item: BGAh9239: humanized anti-FGFR2b IgG1 antibody from murine BGAm1823; VH SEQ ID NO: 9, VL SEQ ID NO: 10 (antibody, V domains shown, Synthetic: VH AA; Synthetic: VL AA) VH: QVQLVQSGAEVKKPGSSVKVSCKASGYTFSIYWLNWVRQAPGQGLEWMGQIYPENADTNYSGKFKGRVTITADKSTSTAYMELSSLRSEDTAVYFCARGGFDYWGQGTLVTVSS VL: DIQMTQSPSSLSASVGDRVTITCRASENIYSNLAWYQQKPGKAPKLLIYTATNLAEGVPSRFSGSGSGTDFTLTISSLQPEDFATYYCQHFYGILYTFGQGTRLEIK
*A* 3.00E−03 S^−1

The measurements presented in this section are drawn from patent US20250222125A1.
